# measurement target: UniProt:P21554
# protocol details: NanoBiT CB1 β-arrestin 2 recruitment assay
# Type: cell-based
# Parameters: expressed in transfected cells
# run parameters: Potency (EC50, nM) β-arrestin 2, Table 5; Ref (reference standard)
value type: EC50 (nM)
The answer is to be given in nM; state only the numeric part.

Query EC50 on UniProt:P21554 for CCCCn1nc(C(=O)NC(C(N)=O)C(C)(C)C)c2ccccc21 (centres unmarked)
5.65

Query EC50 on UniProt:P21554 for C=CCCCn1nc(C(=O)NC(C(=O)OC)C(C)(C)C)c2ccccc21 (centres unmarked)
1.8

====

Can you tell me Efficacy (% of CP55,940) Emax β-arrestin 2 for the items I'm about to list?
# measurement target: human CB1 (Homo sapiens)
# Sequence (P21554 whole entry): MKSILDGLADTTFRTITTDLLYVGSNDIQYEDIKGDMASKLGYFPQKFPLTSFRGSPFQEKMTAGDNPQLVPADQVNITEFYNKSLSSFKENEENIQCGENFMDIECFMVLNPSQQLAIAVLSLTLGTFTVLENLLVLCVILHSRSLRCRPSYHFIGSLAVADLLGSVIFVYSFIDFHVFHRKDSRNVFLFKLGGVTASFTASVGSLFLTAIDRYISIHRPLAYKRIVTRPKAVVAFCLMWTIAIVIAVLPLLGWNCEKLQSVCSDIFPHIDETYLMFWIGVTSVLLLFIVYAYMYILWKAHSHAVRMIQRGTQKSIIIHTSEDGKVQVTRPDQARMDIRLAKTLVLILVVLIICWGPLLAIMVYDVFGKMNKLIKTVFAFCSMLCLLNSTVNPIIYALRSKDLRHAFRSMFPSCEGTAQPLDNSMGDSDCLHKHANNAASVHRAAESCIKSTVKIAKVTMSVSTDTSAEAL
# Sequence (P32121 whole entry partner): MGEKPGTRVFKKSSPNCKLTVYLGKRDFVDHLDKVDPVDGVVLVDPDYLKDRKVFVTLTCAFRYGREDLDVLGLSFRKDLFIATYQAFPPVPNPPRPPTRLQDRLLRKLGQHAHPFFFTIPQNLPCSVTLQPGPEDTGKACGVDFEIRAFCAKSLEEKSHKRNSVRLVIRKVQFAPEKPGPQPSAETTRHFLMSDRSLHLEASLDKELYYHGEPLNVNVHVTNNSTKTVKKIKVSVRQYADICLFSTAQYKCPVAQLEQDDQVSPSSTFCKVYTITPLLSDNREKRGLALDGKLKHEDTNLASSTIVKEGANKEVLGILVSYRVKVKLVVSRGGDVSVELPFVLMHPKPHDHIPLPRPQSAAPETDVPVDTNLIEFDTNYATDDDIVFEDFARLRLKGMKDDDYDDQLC
# protocol details: NanoBiT CB1 β-arrestin 2 recruitment assay
# Assay type: cell-based
# Set-up: expressed in transfected cells
# run parameters: Table 5; Ref (reference standard)

Given C=CCCCn1nc(C(=O)NC(C(=O)OC)C(C)(C)C)c2ccccc21 (stereo not shown) , state its recorded Efficacy (% of CP55,940) Emax β-arrestin 2.
1090 % of CP55,940

Given CCCCCn1cc(C(=O)c2cccc3ccccc23)c2ccccc21 [JWH-018, reference compound] , state its recorded Efficacy (% of CP55,940) Emax β-arrestin 2.
352 % of CP55,940

Given COC(=O)C(NC(=O)c1n[nH]c2ccccc12)C(C)(C)C (stereo not shown) , state its recorded Efficacy (% of CP55,940) Emax β-arrestin 2.
294 % of CP55,940

Given CCCCn1nc(C(=O)NC(C(N)=O)C(C)(C)C)c2ccccc21 (stereo not shown) , state its recorded Efficacy (% of CP55,940) Emax β-arrestin 2.
1330 % of CP55,940
